I'd appreciate it if you could supply protein stability index values for the items below.
B1: FAM164A (parent)
chain: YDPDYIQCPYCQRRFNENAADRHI

Variants of: B1
Experiment: protein stability index of a GFP-peptide fusion (GPS, HEK-293T) (PSI 1-6); higher = more stable;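 further: lentivirally expressed fusions sorted by FACS into six bins by GFP to DsRed ratio, PSI derived from sequencing read proportions per bin multiplied by bin number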
Details: c terminus: a fixed tail appended
# answer = number (no unit)

Request: # get_value(readout='protein stability index', item= `I24P` )
Response: 4.25

Request: # get_value(readout='protein stability index', item= `D4A` )
Response: 4.26

Request: # get_value(readout='protein stability index', item= `Q12C` )
Response: 3.84

Request: # get_value(readout='protein stability index', item= `E17H` )
Response: 4.97

Request: # get_value(readout='protein stability index', item= `I24F` )
Response: 3.88

Request: # get_value(readout='protein stability index', item= `Q7P` )
Response: 2.88

Request: # get_value(readout='protein stability index', item= `I6M` )
Response: 3.42

Request: # get_value(readout='protein stability index', item= `A20N` )
Response: 4.49

Request: # get_value(readout='protein stability index', item= `C8P` )
Response: 3.72

Request: # get_value(readout='protein stability index', item= `R13T` )
Response: 2.41

Request: # get_value(readout='protein stability index', item= `I6V` )
Response: 4.14

Request: # get_value(readout='protein stability index', item= `A20P` )
Response: 3.52

Request: # get_value(readout='protein stability index', item= `C8R` )
Response: 3.12

Request: # get_value(readout='protein stability index', item= `C8N` )
Response: 3.65

Request: # get_value(readout='protein stability index', item= `P9F` )
Response: 2.18

Request: # get_value(readout='protein stability index', item= `R14G` )
Response: 2.81

Request: # get_value(readout='protein stability index', item= `D4M` )
Response: 3.8

Request: # get_value(readout='protein stability index', item= `A19V` )
Response: 3.82

Request: # get_value(readout='protein stability index', item= `A20E` )
Response: 4.34

Request: # get_value(readout='protein stability index', item= `Q12A` )
Response: 4.08

Request: # get_value(readout='protein stability index', item= `Q12T` )
Response: 2.4

Request: # get_value(readout='protein stability index', item= `N18K` )
Response: 4.11

Request: # get_value(readout='protein stability index', item= `Y1L` )
Response: 4.6

Request: # get_value(readout='protein stability index', item= `R13G` )
Response: 4.23

Request: # get_value(readout='protein stability index', item= `N18L` )
Response: 3.93

Request: # get_value(readout='protein stability index', item= `R13S` )
Response: 3.62

Request: # get_value(readout='protein stability index', item= `Y5E` )
Response: 4.57

Request: # get_value(readout='protein stability index', item= `Y1I` )
Response: 4.72

Request: # get_value(readout='protein stability index', item= `Q7S` )
Response: 3.27

Request: # get_value(readout='protein stability index', item= `D2A` )
Response: 2.46

Request: # get_value(readout='protein stability index', item= `A20R` )
Response: 4.24

Request: # get_value(readout='protein stability index', item= `N16L` )
Response: 4.45

Request: # get_value(readout='protein stability index', item= `A19I` )
Response: 4.02

Request: # get_value(readout='protein stability index', item= `I6S` )
Response: 3.44

Request: # get_value(readout='protein stability index', item= `N16T` )
Response: 4.48

Request: # get_value(readout='protein stability index', item= `A19D` )
Response: 4.47

Request: # get_value(readout='protein stability index', item= `A20W` )
Response: 3.52

Request: # get_value(readout='protein stability index', item= `H23D` )
Response: 4.81

Request: # get_value(readout='protein stability index', item= `D21N` )
Response: 4.72

Request: # get_value(readout='protein stability index', item= `Y1S` )
Response: 4.54

Request: # get_value(readout='protein stability index', item= `P3D` )
Response: 4.01

Request: # get_value(readout='protein stability index', item= `C11D` )
Response: 3.81

Request: # get_value(readout='protein stability index', item= `I24D` )
Response: 4.92

Request: # get_value(readout='protein stability index', item= `Q12N` )
Response: 4.05

Request: # get_value(readout='protein stability index', item= `Q7I` )
Response: 4.76

Request: # get_value(readout='protein stability index', item= `P3S` )
Response: 4.39

Request: # get_value(readout='protein stability index', item= `Q7Y` )
Response: 3.77

Request: # get_value(readout='protein stability index', item= `I6C` )
Response: 3.7

Request: # get_value(readout='protein stability index', item= `C11M` )
Response: 3.65

Request: # get_value(readout='protein stability index', item= `D21G` )
Response: 3.9

Request: # get_value(readout='protein stability index', item= `D2S` )
Response: 2.59

Request: # get_value(readout='protein stability index', item= `I6W` )
Response: 2.8

Request: # get_value(readout='protein stability index', item= `N18M` )
Response: 3.48

Request: # get_value(readout='protein stability index', item= `A20M` )
Response: 4.12

Request: # get_value(readout='protein stability index', item= `N16E` )
Response: 3.97

Request: # get_value(readout='protein stability index', item= `E17C` )
Response: 5.13

Request: # get_value(readout='protein stability index', item= `F15N` )
Response: 3.18

Request: # get_value(readout='protein stability index', item= `R14N` )
Response: 2.68

Request: # get_value(readout='protein stability index', item= `C8D` )
Response: 4.24

Request: # get_value(readout='protein stability index', item= `A20L` )
Response: 4.25

Request: # get_value(readout='protein stability index', item= `F15V` )
Response: 3.06

Request: # get_value(readout='protein stability index', item= `R22N` )
Response: 4.29

Request: # get_value(readout='protein stability index', item= `P9C` )
Response: 2.59

Request: # get_value(readout='protein stability index', item= `P9N` )
Response: 2.75

Request: # get_value(readout='protein stability index', item= `N18Y` )
Response: 3.72

Request: # get_value(readout='protein stability index', item= `E17F` )
Response: 5.14

Request: # get_value(readout='protein stability index', item= `R22H` )
Response: 4.46

Request: # get_value(readout='protein stability index', item= `I6K` )
Response: 3.71

Request: # get_value(readout='protein stability index', item= `A20K` )
Response: 3.76

Request: # get_value(readout='protein stability index', item= `R13C` )
Response: 3.17

Request: # get_value(readout='protein stability index', item= `Y10A` )
Response: 4.5

Request: # get_value(readout='protein stability index', item= `A19W` )
Response: 3.66

Request: # get_value(readout='protein stability index', item= `P3I` )
Response: 3.99

Request: # get_value(readout='protein stability index', item= `N18C` )
Response: 4.15

Request: # get_value(readout='protein stability index', item= `D21V` )
Response: 4.25

Request: # get_value(readout='protein stability index', item= `I6R` )
Response: 3.63

Request: # get_value(readout='protein stability index', item= `I6T` )
Response: 3.56

Request: # get_value(readout='protein stability index', item= `Y1N` )
Response: 4.45

Request: # get_value(readout='protein stability index', item= `I6L` )
Response: 3.27

Request: # get_value(readout='protein stability index', item= `E17L` )
Response: 5.16

Request: # get_value(readout='protein stability index', item= `Q12V` )
Response: 2.48

Request: # get_value(readout='protein stability index', item= `P9Y` )
Response: 2.07

Request: # get_value(readout='protein stability index', item= `N18I` )
Response: 3.36

Request: # get_value(readout='protein stability index', item= `F15W` )
Response: 4

Request: # get_value(readout='protein stability index', item= `Q7C` )
Response: 3.57

Request: # get_value(readout='protein stability index', item= `C8S` )
Response: 3.68

Request: # get_value(readout='protein stability index', item= `R14S` )
Response: 4.11

Request: # get_value(readout='protein stability index', item= `E17P` )
Response: 5.37

Request: # get_value(readout='protein stability index', item= `R14P` )
Response: 3.9

Request: # get_value(readout='protein stability index', item= `D4P` )
Response: 4.08

Request: # get_value(readout='protein stability index', item= `A20D` )
Response: 4.25
